conditions: 25 °C
parameter: solubility (mM)
Answer format: numeric, mM implied, no suffix.

Some molecules with known solubility results, for comparison:
C#CCBr	125
C=Cc1cccc(C)c1	0.753
C[Si](C)(C)O[Si](C)(C)O[Si](C)(C)C	0.000144

Query block: Consider the molecule Cc1ccc(C)cc1 and give its measured solubility.
Result block: 1.53

Query block: Another molecule to check: Nc1ccc(Cl)cc1
Result block: 30.6

Query block: Another molecule to check: Clc1cc(Cl)c(Cl)cc1Cl
Result block: 0.00276

Query block: Another molecule to check: CCCCCCCCCCCCCCCCCO
Result block: 3.12e-05

Query block: Another molecule to check: OCC#CCO
Result block: 4340

Query block: Another molecule to check: Nc1cc(Cl)cc(C(=O)O)c1Cl
Result block: 3.4

* * *

conditions: 22 °C
parameter: solubility (µM)
Answer format: numeric, µM implied, no suffix.

Some molecules with known solubility results, for comparison:
CN(C)C(=O)Nc1cccc(C(F)(F)F)c1	366
O=[N+]([O-])c1ccc(Oc2c(Cl)cc(Cl)cc2Cl)cc1	2.4
CCCCC(CC)COC(=O)CCCCC(=O)OCC(CC)CCCC (configuration not stated)	2.1
ClC=CCCl (mixture of isomers)	14500

Query block: Consider the molecule CC(C)Nc1nc(Cl)nc(NC2CC2)n1 and give its measured solubility.
Result block: 303

Query block: Another molecule to check: Clc1c(Cl)c(Cl)c2ccccc2c1Cl
Result block: 0.016

Query block: Another molecule to check: CCOC(=O)CC(SP(=O)(OC)OC)C(=O)OCC (configuration not stated)
Result block: 23900

* * *

parameter: log10 OH rate constant (cm³/molecule/s)

Query block: Consider the molecule CCC(C)O (stereo unspecified) and give its measured log10 OH rate constant (cm³/molecule/s).
Result block: -11

* * *

Returns one of y or n; y when logP is >= 2.

O=[N+]([O-])c1cc(C2CCCCC2)c(O)c([N+](=O)[O-])c1	y
O=C(c1ccc(Cl)cc1)c1cc(F)ccc1O	y

Here is another compound to look at.
Query block: Does the compound CN(C)c1cccc([N+](=O)[O-])c1 have recorded logP that is 2 or more?
Result block: y

* * *

parameter: logP
Format: numeric value only, no unit, no commentary.

Some molecules with known logP results, for comparison:
CCCCOCCOCCOCCCC	1.92
NC(=O)c1ccccc1NCCO	-0.05
COc1ccc(OCCN(C)C)cc1	1.23
OCC(CO)(CO)CO	-1.69
N#CC(C#N)=Cc1ccc(Cl)o1	2.17

Query block: Consider the molecule CCN1CC=C(c2ccccc2)CC1 and give its measured logP.
Result block: 3.18

Query block: Another molecule to check: COc1cccc(N=c2snc3sc(S(N)(=O)=O)nn23)c1
Result block: 2.66

* * *

Where a SMILES comes first, the peptide text is derived from it. The star is where a group is joined. NHtBu = CC(C)(C)N*
parameter: logP
Format: numeric value only, no unit, no commentary.

Some compounds with known logP results, for comparison:
CC(=O)NC(C)C(=O)NC(CCC(=O)O)C(=O)NC(C)(C)C (stereo not drawn) (Ac-Ala-Glu-NHtBu; configuration not given here)	-0.67
Cc1cc(Cc2cc(Cl)ccc2Cl)c(Cl)cc1Cl	7.53
CC1(C2=CCCCC2)C(=O)NC(=O)NC1=O	1.6
N=c1cc2n(-c3ccc(Cl)cc3)c3ccccc3nc-2cc1Nc1ccc(Cl)cc1	6.47
CCNc1nc(NCC)nc(SC)n1	2.8

Query compound follows.
Query block: Consider the compound COc1ccc(C(=O)CCC(=O)O)cc1 and give its measured logP.
Result block: 1.38

* * *

Where a SMILES comes first, the peptide text is derived from it.
Criterion: logP strictly less than 0.6. Met: criterion met. Not met: criterion not met.

Cc1cn(C2CC(O)C(CN)O2)c(=O)[nH]c1=O (configuration not stated)	criterion met
C[N+](C)(C)CCCl.[Cl-]	criterion met
CC(=O)N[C@@H](CC(C)C)C(=O)N[C@H](C(=O)N[C@@H](CC(C)C)C(N)=O)[C@@H](C)O (Ac-Leu-Thr-Leu-NH2)	criterion met
C=CC(=O)OCCOC	criterion met
Sc1nc2ccccc2s1	criterion not met

Query block: Below 0.6 on logP? Entry COc1ccc([N+](=O)[O-])cc1NC(C)=O
Result block: criterion not met

Query block: Another compound to check: CCCCOC(=O)c1ccccc1C(=O)OCCCC
Result block: criterion not met

* * *

parameter: logP
Format: numeric value only, no unit, no commentary.

ClC=C1C2C(Cl)C(Cl)C(C2Cl)C1(CCl)CCl (stereo unspecified)	5.35
CCO[C@H]1O[C@@H]2OC3(C)CC[C@H]4[C@H](C)CC[C@@H]([C@H]1C)[C@@]24OO3	3.89
Cc1ncc([N+](=O)[O-])n1C	0.31
CCOc1ccc([N+](=O)[O-])cc1NC(=O)CC	1.85
Nc1ccc2c(c1)Cc1cc(Br)ccc1-2	3.92
Cc1cc(Cc2ccc(Cl)cc2Cl)c(Cl)cc1Cl	7.43
CC1=C(C(=O)OC(C)C)C(c2cccc([N+](=O)[O-])c2)C(C(=O)OC2CN(C(c3ccccc3)c3ccccc3)C2)=C(N)N1 (stereo unspecified)	5.18
Nc1ccc2nc(S(N)(=O)=O)sc2c1	0.52

Query block: Consider the molecule CCCCN(CC)N=O and give its measured logP.
Result block: 1.63

Query block: Another molecule to check: Cc1ccc2oc(-c3ccccc3C(=O)O)c(Br)c2c1
Result block: 5.19

Query block: Another molecule to check: CCCCC(OC(Cc1ccccc1)C(=O)N1CCC(OCOC)CC1)C(=O)NC(CC1CCCCC1)C(O)CC(C(=O)NCCCNC(=NC#N)NC)C(C)C (stereo unspecified)
Result block: 4.4

* * *

parameter: solubility (mM)
Answer format: numeric, mM implied, no suffix.

Clc1ccc2cc(Cl)c(Cl)cc2c1	7.21e-05

Query block: Consider the compound Cl.Cl.O=C1c2c(O)ccc(O)c2C(=O)c2c(NCCNCCO)ccc(NCCNCCO)c21 and give its measured solubility.
Result block: 14.5

Query block: Another compound to check: CC(C)Nc1nc(N)nc(Cl)n1
Result block: 1.97

Query block: Another compound to check: CC(C)c1ccc2c(c1)CC[C@H]1[C@](C)(C(=O)O)CCC[C@]21C
Result block: 0.022

Query block: Another compound to check: CN(C)c1ccc2cc3ccc(N(C)C)cc3nc2c1
Result block: 2.64

Query block: Another compound to check: Nc1ccc(Cc2ccc(N)c(Cl)c2)cc1Cl
Result block: 0.052

Query block: Another compound to check: O=C(O)CN(CC(=O)O)Cc1cc2c(c(O)c1O)C(=O)c1ccccc1C2=O
Result block: 15.6

Query block: Another compound to check: CCCCN(CCOC(C)=O)c1ccc(N=Nc2c(C#N)cc([N+](=O)[O-])cc2C#N)c(C)c1
Result block: 1.32e-06

* * *

parameter: logP
Format: numeric value only, no unit, no commentary.

Some compounds with known logP results, for comparison:
COc1ccc(C(N)=S)cc1	1.63
CC(=O)Nc1ccc(C(=O)O)c(O)c1	1.62
CCCC(=O)n1ncc2c(O)ncnc21	0.85
ClC1=C(Cl)C2(Cl)C(CBr)CC1(Cl)C2(Cl)Cl (stereo not drawn)	5.9
CC(=O)Oc1ccc(OCCN(C)C)cc1C	1.64

Query block: Consider the compound CCC(=O)OC1(c2ccccc2)CCN(C)CC1CC (stereo not drawn) and give its measured logP.
Result block: 3.61

Query block: Another compound to check: CC(O)(C(=O)O)c1ccccc1 (stereo not drawn)
Result block: 0.8

Query block: Another compound to check: C#CCN1C(=O)COc2cc(F)c(N3C(=O)C4=C(CCCC4)C3=O)cc21
Result block: 2.55

Query block: Another compound to check: ClC=C1C2CC(C(Cl)C2Cl)C1(CCl)C(Cl)Cl (stereo not drawn)
Result block: 5.45

Query block: Another compound to check: O=c1ccc2cc3ccoc3cc2o1
Result block: 1.67

Query block: Another compound to check: CC(C)COCC(C)C
Result block: 2.78

Query block: Another compound to check: N#CCCCCC#N
Result block: -0.32

Query block: Another compound to check: Cc1ccc(Br)c(C)c1NC(=O)CN(CC(=O)O)CC(=O)O
Result block: -0.28

Query block: Another compound to check: CN1CCN(c2c(F)cc3c(=O)c(C(=O)O)cn(CCF)c3c2F)CC1
Result block: 0.24

Query block: Another compound to check: CN(C(=O)C(Cl)Cl)c1ccc(OC(=O)c2ccccc2)cc1
Result block: 2.56

Query block: Another compound to check: COc1cc(N=Nc2c(Br)cc([N+](=O)[O-])cc2[N+](=O)[O-])c(NC(C)=O)c(N(CCOC(C)=O)CCOC(C)=O)c1
Result block: 4.44

Query block: Another compound to check: CCCCC(OC(Cc1ccccc1)C(=O)N1CCC(OCOC)CC1)C(=O)NC(CC1CCCCC1)C(O)CC(C(=O)NCCNc1n[nH]c(N)n1)C(C)C (stereo not drawn)
Result block: 4

Query block: Another compound to check: CN(C)CCCN1c2ccccc2Sc2ccccc21.Cl
Result block: 2.94

Query block: Another compound to check: S=C=Nc1ccc(Cl)cc1
Result block: 3.91

Query block: Another compound to check: CC(=O)N[C@@H](Cc1ccc(O)cc1)C(=O)O
Result block: 1.32
